experiment: qHTS assay to identify small molecule antagonists of the estrogen related receptor (ERR) signaling pathway from Tox21 library - cell viability counter screen (AID 1224834); conditions: ERR reporter cells viability, CellTiter-Fluor, 17.5 h; series mostly up to 92.4 µM; also: % is scaled to controls: 0 for no effect and ±100 for the full control effect; nearly all actives have a fitted effect of over 30% in size
Records with an inconclusive call do not appear. Activity calls are given as the source filed them. Calls follow the shape of the dose curve; as a rule, active = well fitted cell-killing curve with a large enough effect in the repeat runs; inconclusive = weak or mixed curves; inactive = flat fitted curve, though single readings scatter.
Measured viability change, negative = cytotoxic of individual entries

>  <Compound>
C=C[Si](C)(C)Cl

>  <viability change, negative = cytotoxic>
5.38% [at 8.39 µM] (inactive)

$$$$
>  <Compound>
COc1cc2ncnc(Nc3cccc(Cl)c3)c2cc1OC

>  <viability change, negative = cytotoxic>
-12.2% [at 19 µM] (inactive)

$$$$
>  <Compound>
CCCCCCCCCCCCS(=O)(=O)Cl

>  <viability change, negative = cytotoxic>
-1.38% [at 19 µM] (inactive)

$$$$
>  <Compound>
C=CC(=O)OCCOC1C2CCC1C1CC=CC12 (stereo not given)

>  <viability change, negative = cytotoxic>
-4.69% [at 19 µM] (inactive)

$$$$
>  <Compound>
O=C(O)C[C@H](O)C[C@H](O)/C=C/c1c(C2CC2)nc2ccccc2c1-c1ccc(F)cc1

>  <viability change, negative = cytotoxic>
0.576% [at 19 µM] (inactive)

$$$$

---

test: qHTS assay for identifying genotoxic compounds that show differential cytotoxicity against isogenic chicken DT40 cell lines with known DNA damage response pathways - wild type cell line (AID 743012); settings: DT40 wild type chicken cells viability, CellTiter-Glo, 40 h; series mostly up to 68.4 µM; also: nearly all actives have a fitted effect of over 60% in size
Results filed as inconclusive are left out. Active and inactive are the calls of the source. The call rests on the fitted dose curve; in most records, active means well fitted cell-killing curve with a large enough effect in the repeat runs; inconclusive means weak or mixed curves, or effect the other way; inactive means no such curve, though single readings can be large or run the other way. Residues, ends and D or L forms follow the SMILES beside them.
Labels: 1 (yes) (active), 0 (no) (inactive)

>  <Molecule>
C1CCc2nnnn2CC1

>  <Answer label>
0 (no)

$$$$
>  <Molecule>
CCOc1ccc(S(=O)(=O)O)c2cccnc12

>  <Answer label>
0 (no)

$$$$
>  <Molecule>
N[C@H](CO)C(=O)O

>  <Answer label>
0 (no)

$$$$
>  <Molecule>
C[C@@H]1C[C@H]2[C@@H]3C[C@H](F)C4=CC(=O)C=C[C@]4(C)[C@@]3(Cl)[C@@H](O)C[C@]2(C)[C@H]1C(=O)COC(=O)C(C)(C)C

>  <Answer label>
0 (no)

$$$$
>  <Molecule>
CN1CCN(CCCN2c3ccccc3Sc3ccc(C(F)(F)F)cc32)CC1

>  <Answer label>
1 (yes)

$$$$
>  <Molecule>
CC1=C(/C=C/C(C)=C/C=C/C(C)=C\C(=O)O)C(C)(C)CCC1

>  <Answer label>
1 (yes)

$$$$
>  <Molecule>
CCC(=O)OC(OP(=O)(CCCCc1ccccc1)CC(=O)N1C[C@H](C2CCCCC2)C[C@H]1C(=O)O)C(C)C (some centres undefined)

>  <Answer label>
0 (no)

$$$$
>  <Molecule>
CNCCC=C1c2ccccc2CCc2ccccc21

>  <Answer label>
1 (yes)

$$$$
>  <Molecule>
C/C=C/C1=C(C(=O)O)N2C(=O)[C@@H](NC(=O)[C@H](N)c3ccc(O)cc3)[C@H]2SC1

>  <Answer label>
0 (no)

$$$$
>  <Molecule>
CN1[C@@H](CC(=O)c2ccccc2)CCC[C@H]1C[C@H](O)c1ccccc1

>  <Answer label>
1 (yes)

$$$$
>  <Molecule>
CC(C)CCC[C@@H](C)[C@H]1CC[C@H]2[C@@H]3CC[C@@H]4C[C@H](O)CC[C@]4(C)[C@H]3CC[C@]12C

>  <Answer label>
0 (no)

$$$$
>  <Molecule>
CC(C)Cc1ccc([C@H](C)C(=O)O)cc1

>  <Answer label>
0 (no)

$$$$
>  <Molecule>
Cc1cc(Br)ccc1NC(=O)CCl

>  <Answer label>
1 (yes)

$$$$
>  <Molecule>
N=C(N)n1cccn1

>  <Answer label>
0 (no)

$$$$
>  <Molecule>
CO[C@H]1C[C@H](O[C@H]2[C@H](C)[C@@H](O[C@@H]3O[C@H](C)C[C@H](N(C)C)[C@H]3O)[C@@H](C)C[C@]3(CO3)C(=O)[C@H](C)[C@@H](O)[C@@H](C)[C@@H](C)OC(=O)[C@@H]2C)O[C@@H](C)[C@@H]1O

>  <Answer label>
0 (no)

$$$$
>  <Molecule>
C=CC1=C(C(=O)O)N2C(=O)[C@@H](NC(=O)/C(=N/OCC(=O)O)c3csc(N)n3)[C@H]2SC1 (stereo in doubt)

>  <Answer label>
0 (no)

$$$$
>  <Molecule>
N[C@H](C(=O)O)[C@@H]1CC(Cl)=NO1

>  <Answer label>
1 (yes)

$$$$
>  <Molecule>
Cc1ccc(Cl)c(N)c1Cl

>  <Answer label>
1 (yes)

$$$$
>  <Molecule>
Cc1cc(N)c2ccccc2[n+]1CCCCCCCCCC[n+]1c(C)cc(N)c2ccccc21

>  <Answer label>
1 (yes)

$$$$
>  <Molecule>
CO/N=C(\C(=O)N[C@@H]1C(=O)N2C(C(=O)O)=C(COC(C)=O)CS[C@H]12)c1csc(N)n1 (stereo in doubt)

>  <Answer label>
0 (no)

$$$$
>  <Molecule>
CC12CCC(C1)C(C)(C)C2=O (centres undefined)

>  <Answer label>
0 (no)

$$$$
>  <Molecule>
CC(=O)OCC(=O)[C@@]1(O)CC[C@H]2[C@@H]3CCC4=CC(=O)CC[C@]4(C)C3=CC[C@@]21C

>  <Answer label>
0 (no)

$$$$
>  <Molecule>
CC(C)[C@H](NC(=O)[C@H](CC(=O)O)NC(=O)[C@H](CCCCN)NC(=O)[C@@H](N)CCCN=C(N)N)C(=O)N[C@@H](Cc1ccc(O)cc1)C(=O)O (H-RKDVY-OH)

>  <Answer label>
0 (no)

$$$$
>  <Molecule>
CCN(CC)C(=O)c1cccnc1

>  <Answer label>
0 (no)

$$$$
>  <Molecule>
O=C1c2ccccc2CN2C(=O)c3ccccc3CN12

>  <Answer label>
0 (no)

$$$$
>  <Molecule>
CCCCCCCCCCCCN1CCCC1=O

>  <Answer label>
1 (yes)

$$$$
>  <Molecule>
CC1(C)C[C@@H]1C(=O)N/C(=C\CCCCSC[C@H](N)C(=O)O)C(=O)O

>  <Answer label>
0 (no)

$$$$
>  <Molecule>
CNC(=O)C[C@@H](N)C(=O)N[C@@H](C(=O)N[C@@H]1C(=O)N2[C@@H]1SC(C)(C)[C@@H]2C(=O)O)c1ccc(O)cc1

>  <Answer label>
0 (no)

$$$$
>  <Molecule>
CN[C@@H]1[C@@H](O[C@H]2O[C@H](CO)[C@@H](N)[C@H](O)[C@H]2O)O[C@H]2C[C@@H](N)[C@@H](O[C@H]3[C@H](O)[C@@H](O)[C@H](N)C[C@@H]3N)O[C@@H]2[C@@H]1O

>  <Answer label>
0 (no)

$$$$
>  <Molecule>
NCC(O)CC(=O)O (centres undefined)

>  <Answer label>
0 (no)

$$$$
>  <Molecule>
C[Se]CC[C@H](N)C(=O)O

>  <Answer label>
0 (no)

$$$$
>  <Molecule>
NC(=O)CC[C@@H]1NC(=O)[C@H](Cc2ccccc2)NC(=O)[C@H](Cc2ccc(O)cc2)NC(=O)[C@@H](N)CSSC[C@@H](C(=O)N2CCC[C@H]2C(=O)N[C@@H](CCCN=C(N)N)C(=O)NCC(N)=O)NC(=O)[C@H](CC(N)=O)NC1=O

>  <Answer label>
0 (no)

$$$$
>  <Molecule>
CC12CCC(C[N+](C)(CCC[N+](C)(C)C)C1)C2(C)C (centres undefined)

>  <Answer label>
0 (no)

$$$$
>  <Molecule>
COc1ccc(/C=N/NC(=O)c2ccncc2)c(C(=O)O)c1OC

>  <Answer label>
0 (no)

$$$$
>  <Molecule>
O=C(O)/C=C/C(O)c1ccc(Cl)cc1 (centres undefined)

>  <Answer label>
0 (no)

$$$$
>  <Molecule>
Cc1c(O)c(=O)ccn1C

>  <Answer label>
0 (no)

$$$$
>  <Molecule>
CO/N=C(\C(=O)N[C@@H]1C(=O)N2C(C(=O)[O-])=C(C[n+]3cccc4c3CCC4)CS[C@H]12)c1csc(N)n1

>  <Answer label>
0 (no)

$$$$
>  <Molecule>
Cc1cnc(C(=O)O)c[n+]1[O-]

>  <Answer label>
0 (no)

$$$$
>  <Molecule>
Cc1cc(C(=O)NCCc2ccc(S(=O)(=O)NC(=O)NN3CCCCCC3)cc2)no1

>  <Answer label>
0 (no)

$$$$
